Listed next: entries and their corresponding % Mortality 48 h.
# Tested on: newly emerged larvae of Lucilia sericata, blowfly
# protocol.text: Efficacy against blowfly larvae, treated paper/serum bioassay
# Assay type: in vivo
# test.settings: Conc. 20.0 ppm; 48 h; blowfly larvae
Reply with just the number (in %).

These solved cases illustrate the format of a correct answer.
CC1(c2nn(-c3c(Cl)cc(Cl)cc3Cl)c(Cl)c2C#N)CC1(Cl)Cl (centres unmarked) [Example 27]	100
COC=Nc1c(C#N)c(C2(C)CC2(Cl)Cl)nn1-c1c(Cl)cc(C(F)(F)F)cc1Cl (centres unmarked) [Example 37]	100
N#Cc1c(C2CC2)nn(-c2c(Cl)cc(C(F)(F)F)cc2Cl)c1Cl [Example 26]	97
CC1C(Cl)(Cl)C1(C)c1nn(-c2c(Cl)cc(C(F)(F)F)cc2Cl)cc1C#N (centres unmarked) [Example 7]	90

Request: Any idea what its % Mortality 48 h is? The compound is CC(C)(C)C(=O)Nc1c(C#N)c(C2(C)CC2(Cl)Cl)nn1-c1c(Cl)cc(C(F)(F)F)cc1Cl (centres unmarked) [Example 34]
Response: 0

====

# System: Rhipacephalus sanguineus, adult ticks
# protocol.text: Contact activity against adult ticks, coated glass vial assay
# Assay type: in vivo
# test.settings: Conc. 0.78 ug/cm2, 24 h
measurement.name: % Mortality 24 h (%)
Reply with just the number (in %).

Request: Any idea what its % Mortality 24 h is? The compound is CC1(c2nn(-c3c(Cl)cc(C(F)(F)F)cc3Cl)cc2C#N)CC1(Br)Br (stereo not drawn) [Example 14]
Response: 40

Request: Any idea what its % Mortality 24 h is? The compound is CC1(c2nn(-c3c(Cl)cc(C(F)(F)F)cc3Cl)c(Br)c2C#N)CC1(Br)Br (stereo not drawn) [Example 22]
Response: 30

Request: Any idea what its % Mortality 24 h is? The compound is CC1(c2nn(-c3c(Cl)cc(C(F)(F)F)cc3Cl)c(Cl)c2C#N)CC1(Cl)Cl (stereo not drawn) [Example 4]
Response: 100

====

Listed next: entries and their corresponding % Mortality 48 h.
# Tested on: newly emerged larvae of Lucilia sericata, blowfly
# protocol.text: Efficacy against blowfly larvae, treated paper/serum bioassay
# Assay type: in vivo
# test.settings: Conc. 2.0 ppm; 48 h; blowfly larvae
Numeric answer plus unit only.

CN(C)c1c(C#N)c(C2(C)CC2(Cl)Cl)nn1-c1c(Cl)cc(C(F)(F)F)cc1Cl (centres unmarked) [Example 32]	0%

Request: Any idea what its % Mortality 48 h is? The compound is CCCOC=Nc1c(C#N)c(C2(C)CC2(Cl)Cl)nn1-c1c(Cl)cc(C(F)(F)F)cc1Cl (racemic) [Example 39]
Response: 70%

Request: Any idea what its % Mortality 48 h is? The compound is CC1(c2nn(-c3c(Cl)cc(C(F)(F)F)cc3Cl)c(I)c2C#N)CC1(Cl)Cl (centres unmarked) [Example 31]
Response: 100%

Request: Any idea what its % Mortality 48 h is? The compound is CC1(c2nn(-c3c(Cl)cc(Cl)cc3Cl)cc2C#N)CC1(Br)Br (centres unmarked) [Example 15]
Response: 95%

====

# System: Rhipacephalus sanguineus, adult ticks
# protocol.text: Contact activity against adult ticks, coated glass vial assay
# Type: in vivo
# test.settings: Conc. 7.80 ug/cm2, 4 h
measurement.name: % Mortality 4 h (%)
Reply with just the number (in %).

These solved cases illustrate the format of a correct answer.
CC1(c2nn(-c3c(Cl)cc(C(F)(F)F)cc3Cl)c(Br)c2C#N)CC1(Br)Br (stereo not shown)	0
CC1(c2nn(-c3c(Cl)cc(C(F)(F)F)cc3Cl)c(Br)c2C#N)CC1(Cl)Cl (stereo not shown)	20
CC1(c2nn(-c3c(Cl)cc(C(F)(F)F)cc3Cl)c(N)c2C#N)CC1(Br)Br (stereo not shown)	0

Switching to the query record.
Request: Any idea what its % Mortality 4 h is? The compound is N#Cc1nn(-c2c(Cl)cc(C(F)(F)F)cc2Cl)c(N)c1[S+]([O-])C(F)(F)F (stereo not shown) [Standard, Fipronil, reference compound]
Response: 100

====

# Test system: newly emerged larvae of Lucilia sericata, blowfly
# protocol.text: Efficacy against blowfly larvae, treated paper/serum bioassay
# Format: in vivo
# test.settings: Conc. 2.0 ppm; 24 h; blowfly larvae
Listed next: entries and their corresponding % Mortality 24 h.
Reply with just the number (in %).

CC1(c2nn(-c3c(Cl)cc(C(F)(F)F)cc3Cl)c(Br)c2C#N)CC1(Br)Br (stereo not shown)	100
COC=Nc1c(C#N)c(C2(C)CC2(Cl)Cl)nn1-c1c(Cl)cc(C(F)(F)F)cc1Cl (stereo not shown)	0
N#Cc1c(C2CC2)nn(-c2c(Cl)cc(C(F)(F)F)cc2Cl)c1Cl	0

Switching to the query record.
Request: Any idea what its % Mortality 24 h is? The molecule is CCN(CC)c1c(C#N)c(C2(C)CC2(Cl)Cl)nn1-c1c(Cl)cc(C(F)(F)F)cc1Cl (stereo not shown)
Response: 90

====

Listed next: entries and their corresponding % Mortality 24 h.
# System: Ctenocephatides felis, adult cat fleas
# protocol.text: Contact activity against adult cat fleas, coated glass vial assay
# Type: in vivo
# test.settings: Conc. 2 ug/cm2, 24 h
Reply with just the number (in %).

Request: Any idea what its % Mortality 24 h is? The compound is CC1(c2nn(-c3c(Cl)cc(C(F)(F)F)cc3Cl)c(Br)c2C#N)CC1(Cl)Cl (stereo not shown)
Response: 100

Request: Any idea what its % Mortality 24 h is? The compound is CC1C(Cl)(Cl)C1(C)c1nn(-c2c(Cl)cc(C(F)(F)F)cc2Cl)cc1C#N (stereo not shown)
Response: 100

Request: Any idea what its % Mortality 24 h is? The compound is CC1(c2nn(-c3c(Cl)cc(Cl)cc3Cl)cc2C#N)CC1(Br)Br (stereo not shown)
Response: 80

Request: Any idea what its % Mortality 24 h is? The compound is CC1(c2nn(-c3c(Cl)cc(C(F)(F)F)cc3Cl)c(N)c2C#N)CC1(Br)Br (stereo not shown)
Response: 0

Request: Any idea what its % Mortality 24 h is? The compound is CCCOC=Nc1c(C#N)c(C2(C)CC2(Cl)Cl)nn1-c1c(Cl)cc(C(F)(F)F)cc1Cl (racemic)
Response: 70

Request: Any idea what its % Mortality 24 h is? The compound is COC=Nc1c(C#N)c(C2(C)CC2(Cl)Cl)nn1-c1c(Cl)cc(C(F)(F)F)cc1Cl (stereo not shown)
Response: 100

Request: Any idea what its % Mortality 24 h is? The compound is CN(C)c1c(C#N)c(C2(C)CC2(Cl)Cl)nn1-c1c(Cl)cc(C(F)(F)F)cc1Cl (stereo not shown)
Response: 100

Request: Any idea what its % Mortality 24 h is? The compound is "N#Cc1c(C2CC2)nn(-c2c(Cl)cc(C(F)(F)F)cc2Cl)c1Cl"
Response: 100

Request: Any idea what its % Mortality 24 h is? The compound is N#Cc1nn(-c2c(Cl)cc(C(F)(F)F)cc2Cl)c(N)c1[S+]([O-])C(F)(F)F (stereo not shown) [Standard, Fipronil, reference compound]
Response: 100

====

# Tested on: newly emerged larvae of Lucilia sericata, blowfly
# protocol.text: Efficacy against blowfly larvae, treated paper/serum bioassay
# Format: in vivo
# test.settings: Conc. 0.2 ppm; 24 h; blowfly larvae
measurement.name: % Mortality 24 h

These solved cases illustrate the format of a correct answer.
CC1(c2nn(-c3c(Cl)cc(Cl)cc3Cl)cc2C#N)CC1(Br)Br (centres unmarked) [Example 15]	0%
CC1(c2nn(-c3c(Cl)cc(C(F)(F)F)cc3Cl)c(Br)c2C#N)CC1(Cl)Cl (centres unmarked) [Example 29]	15%
CC1(c2nn(-c3c(Cl)cc(C(F)(F)F)cc3Cl)c(I)c2C#N)CC1(Cl)Cl (centres unmarked) [Example 31]	0%
CC1(c2nn(-c3c(Cl)cc(C(F)(F)F)cc3Cl)c(Br)c2C#N)CC1(Br)Br (centres unmarked) [Example 22]	0%
CN(C)c1c(C#N)c(C2(C)CC2(Cl)Cl)nn1-c1c(Cl)cc(C(F)(F)F)cc1Cl (centres unmarked) [Example 32]	0%

Request: Any idea what its % Mortality 24 h is? The compound is CC1(c2nn(-c3c(Cl)cc(C(F)(F)F)cc3Cl)cc2C#N)CC1(Br)Br (centres unmarked) [Example 14]
Response: 50%

Request: Any idea what its % Mortality 24 h is? The compound is CC1(c2nn(-c3c(Cl)cc(Cl)cc3Cl)c(Cl)c2C#N)CC1(Cl)Cl (centres unmarked) [Example 27]
Response: 0%

Request: Any idea what its % Mortality 24 h is? The compound is CC1(c2nn(-c3c(Cl)cc(C(F)(F)F)cc3Cl)c(N)c2C#N)CC1(Br)Br (centres unmarked) [Example 21]
Response: 0%
